Hi there, I'd appreciate the recorded EC50 for every entry that follows.
# tested.system: human liver GK (Homo sapiens)
# Construct: GST (glutathione S-transferase) (N)
# test.summary: GK activation test
# applied.conditions: test compound concentration needed to activate 50% of maximum activation ability; 4 mM 14C-labeled glucose, 2 mM ATP, room temperature, 20 minutes

Fill in the blank: the reported EC50 of O=C1CC[C@H](/C=C(\c2ccc(OCCCCO)c(Cl)c2)c2ccc(Cl)c(=O)[nH]2)N1 is ____.
10 to 500 nM

Next up: O=C1CC[C@H](CC(c2ccc(C3CC3)c(=O)[nH]2)c2ccc(C(F)(F)F)cc2F)N1 (single isomer, unassigned) [Example 4-333]
3000 to 10000 nM

Next up: CCc1ccc(/C(=C\[C@H]2CCC(=O)C2)c2ccc(C3CC3)c(=O)[nH]2)cc1
10 to 500 nM

Next up: CCOc1ccc(C(C[C@H]2CCC(=O)N2)c2ccc(Cl)c(=O)[nH]2)cc1Cl (stereo partly drawn)
500 to 3000 nM

Next up: CC(=O)Nc1cccc(/C(=C\[C@H]2CCC(=O)N2)c2ccc(Cl)c(=O)[nH]2)c1
3000 to 10000 nM

Next up: O=C1CC[C@H](/C=C(\c2ccc(OC(F)F)c(Cl)c2)c2ccc(C3CC3)c(=O)[nH]2)N1
10 to 500 nM

Next up: O=C1CC[C@H](CC(c2ccc(Cl)c(F)c2)c2ccc(C3CC3)c(=O)[nH]2)N1 (single isomer, unassigned)
500 to 3000 nM

Next up: O=C1CC[C@H](/C=C(\c2ccc(OC3CCCC3)cc2)c2ccc(C3CC3)c(=O)[nH]2)N1
10 to 500 nM

Next up: CC(C)c1ccc(/C(=C/[C@H]2CCC(=O)C2)c2ccc(S(C)(=O)=O)cc2)[nH]c1=O
10 to 500 nM

Next up: CCc1ccc(/C(=C\[C@H]2CCC(=O)N2)c2ccc(Cl)c(=O)[nH]2)cc1Cl
10 to 500 nM

Next up: CC(C)(C)c1ccc(/C(=C\[C@H]2CCC(=O)N2)c2ccc(CCc3ccccc3)c(=O)[nH]2)cc1
10 to 500 nM

Next up: O=C1CC[C@H](/C=C(\c2ccc(C(F)(F)F)nc2)c2ccc(C3CC3)c(=O)[nH]2)N1
500 to 3000 nM

Next up: CCc1ccc(/C(=C/C2CCCC2)c2ccc(SCCCN(CC)CC)c(Cl)c2)[nH]c1=O
10 to 500 nM

Next up: CSc1ccc(/C(=C\[C@H]2CCC(O)C2)c2ccc(C3CC3)c(=O)[nH]2)cc1Cl (stereo partly drawn)
10 to 500 nM

Next up: CC(C)c1ccc(C(C[C@H]2CCC(=O)N2)c2ccc(C3CC3)c(=O)[nH]2)cc1Cl (single isomer, unassigned) [Example 4-321]
500 to 3000 nM

----------
Hi there, I'd appreciate the recorded EC50 for every entry that follows.
# tested.system: human liver GK (Homo sapiens)
# Construct: GST (glutathione S-transferase) (N)
# test.summary: GK activation test
# applied.conditions: test compound concentration needed to activate 50% of maximum activation ability; 4 mM 14C-labeled glucose, 2 mM ATP, room temperature, 20 minutes

Fill in the blank: the reported EC50 of C[C@H](/C=C(\c1ccc(S(=O)(=O)C2CC2)cc1)c1ccc(C(F)(F)F)c(=O)[nH]1)CO is ____.
500 to 3000 nM

Next up: Cc1cc(C(C[C@H]2CCC(=O)N2)c2ccc(C3CC3)c(=O)[nH]2)ccc1C(F)(F)F (single isomer, unassigned) [Example 4-330]
500 to 3000 nM

Next up: O=C1CC[C@H](CC(c2ccc(C(F)(F)F)cc2)c2ccc(C3CC3)c(=O)[nH]2)N1 (single isomer, unassigned) [Example 4-248]
500 to 3000 nM

Next up: CCOc1ccc(/C(=C\[C@H]2CCN(C(C)=O)C2)c2ccc(Cl)c(=O)[nH]2)cc1Cl
500 to 3000 nM

----------
Hi there, I'd appreciate the recorded pEC50 for every entry that follows.
# tested.system: human liver GK (Homo sapiens, UniProt P35557)
# Construct: GST (glutathione S-transferase) (N); made in house; host or cells: E. coli
# Sequence (P35557 1-466 isoform P35557-2): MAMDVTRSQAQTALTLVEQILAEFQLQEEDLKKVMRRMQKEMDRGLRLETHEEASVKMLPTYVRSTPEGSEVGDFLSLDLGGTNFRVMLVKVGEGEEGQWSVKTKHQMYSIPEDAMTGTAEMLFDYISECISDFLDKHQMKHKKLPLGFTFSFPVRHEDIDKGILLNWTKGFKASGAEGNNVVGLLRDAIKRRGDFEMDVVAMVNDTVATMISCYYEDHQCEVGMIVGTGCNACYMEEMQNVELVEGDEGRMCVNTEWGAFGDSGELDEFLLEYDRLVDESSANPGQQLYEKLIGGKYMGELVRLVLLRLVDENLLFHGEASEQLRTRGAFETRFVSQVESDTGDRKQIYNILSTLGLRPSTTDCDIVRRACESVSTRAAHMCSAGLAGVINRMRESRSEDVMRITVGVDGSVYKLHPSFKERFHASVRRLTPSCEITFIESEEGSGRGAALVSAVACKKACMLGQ
# test.summary: GK activation test
# Format: biochemical
# applied.conditions: test compound concentration needed to activate 50% of maximum activation ability; 4 mM 14C-labeled glucose, 2 mM ATP, room temperature, 20 minutes
pEC50: −log10 of the molar value.

Fill in the blank: the reported pEC50 of O=C1CC[C@H](/C=C(\c2ccc(OCC(F)(F)F)c(Cl)c2)c2ccc(C3CC3)c(=O)[nH]2)N1 is ____.
6.30 to 8.00

Next up: CCc1ccc(C(CC2CCCC2)c2ccc(SC)cc2)[nH]c1=O (stereo not shown)
5.52 to 6.30

Next up: O=C1CC[C@H](/C=C(\c2ccc(C(F)F)cc2)c2ccc(C3CC3)c(=O)[nH]2)N1
6.30 to 8.00

Next up: CCc1ccc(/C(=C/[C@H]2CCC(=O)C2)c2ccc(S(=O)(=O)CCCO)c(Cl)c2)[nH]c1=O
6.30 to 8.00

Next up: O=c1[nH]c(/C(=C/CCCO)c2ccc(S(=O)(=O)C3CC3)cc2)ccc1C(F)(F)F
5.52 to 6.30

Next up: CCc1ccc(C(CC2CCCC2)c2ccc(S(C)(=O)=O)cc2)[nH]c1=O (stereo not shown)
5.52 to 6.30

Next up: CC(C)Oc1ccc(C(C[C@H]2CCC(=O)N2)c2ccc(C3CC3)c(=O)[nH]2)cc1Cl (single isomer, unassigned) [Example 4-323]
5.00 to 5.52

----------
# tested.system: human liver GK (Homo sapiens)
# Construct: GST (glutathione S-transferase) (N)
# test.summary: GK activation test
# applied.conditions: test compound concentration needed to activate 50% of maximum activation ability; 4 mM 14C-labeled glucose, 2 mM ATP, room temperature, 20 minutes
pEC50: −log10 of the molar value.
attribute.measured: pEC50

Under human liver GK (Homo sapiens): pEC50 value of CCc1ccc(/C(=C/C2CCCC2)c2ccc(S(=O)(=O)CCCN(CC)CC)c(Cl)c2)[nH]c1=O ?
6.30 to 8.00

Next up: CSc1ccc(/C(=C\[C@H]2CCC(=O)C2)c2ccc(C3CC3)c(=O)[nH]2)cc1Cl
6.30 to 8.00

Next up: CCOc1cccc(/C(=C\[C@H]2CCC(=O)N2)c2ccc(C3CC3)c(=O)[nH]2)c1
5.52 to 6.30

Next up: O=C1CC[C@H](/C=C(\c2ccc(C3CC3)cc2)c2ccc(Cl)c(=O)[nH]2)N1
5.52 to 6.30

----------
Hi there, I'd appreciate the recorded EC50 for every entry that follows.
# tested.system: human liver GK (Homo sapiens)
# Construct: GST (glutathione S-transferase) (N); made in house; host or cells: E. coli
# test.summary: GK activation test
# Format: biochemical
# applied.conditions: test compound concentration needed to activate 50% of maximum activation ability; 4 mM 14C-labeled glucose, 2 mM ATP, room temperature, 20 minutes
# Description: The GK activation test for the test compounds was performed by the method of Irwin A. Rose et al. (J. Biol. Chem. 1964 January; 239:12-7) with partial modifications. […] After 20 minutes, AG1-X4 resin (BioRad) suspended in 25 mM Hepes-KOH (pH=7.1) was added and the reaction product, labeled glucose 6-phosphate, was allowed to bind thereto. […] The labeling activity of the eluted labeled glucose 6-phosphate was measured as an index of GK activity. […]

Under human liver GK (Homo sapiens): EC50 value of O=C1CC[C@H](/C=C(\c2ccc(OC(F)(F)F)cc2)c2ccc(Cl)c(=O)[nH]2)N1 ?
0.5 to 3 µM

Next up: CC(C)(C)c1ccc(/C(=C\CCN2C(=O)CCC2=O)c2ccc(Cl)c(=O)[nH]2)cc1
0.5 to 3 µM

Next up: CN1CCC(C/C=C(\c2ccc(C(C)(C)C)cc2)c2ccc(Cl)c(=O)[nH]2)C1=O (stereo not shown)
0.5 to 3 µM

Next up: Cc1ccc(C(C[C@H]2CCC(=O)C2)c2ccc(S(C)(=O)=O)cc2)[nH]c1=O (stereo partly shown)
3 to 10 µM

Next up: O=C1CC[C@H](CC(c2ccc(C3CC3)c(=O)[nH]2)c2ccc(Cl)cc2F)N1 (single isomer, unassigned) [Example 4-334]
0.5 to 3 µM

Next up: CC(C)Oc1ccc(C(C[C@H]2CCC(=O)N2)c2ccc(Cl)c(=O)[nH]2)cc1Cl (single isomer, unassigned) [Example 4-297]
3 to 10 µM

Next up: CSc1ccc(/C(=C\C2CCN(C(C)=O)CC2)c2ccc(C3CC3)c(=O)[nH]2)cc1
3 to 10 µM

----------
# tested.system: human liver GK (Homo sapiens, UniProt P35557)
# Construct: GST (glutathione S-transferase) (N)
# test.summary: GK activation test
# applied.conditions: test compound concentration needed to activate 50% of maximum activation ability; 4 mM 14C-labeled glucose, 2 mM ATP, room temperature, 20 minutes
# Procedure: The GK activation test for the test compounds was performed by the method of Irwin A. Rose et al. (J. Biol. Chem. 1964 January; 239:12-7) with partial modifications. […] After 20 minutes, AG1-X4 resin (BioRad) suspended in 25 mM Hepes-KOH (pH=7.1) was added and the reaction product, labeled glucose 6-phosphate, was allowed to bind thereto. […] The labeling activity of the eluted labeled glucose 6-phosphate was measured as an index of GK activity. […]
pEC50: −log10 of the molar value.
Hi there, I'd appreciate the recorded pEC50 for every entry that follows.

Fill in the blank: the reported pEC50 of CC(C)(C)c1ccc(/C(=C\[C@H]2CCC(=O)N2)c2cccc(=O)[nH]2)cc1 [Example 4-186] is ____.
5.52 to 6.30

Next up: Cc1cc(C(C[C@H]2CCC(=O)N2)c2ccc(C3CC3)c(=O)[nH]2)ccc1C(F)F (single isomer, unassigned) [Example 4-231]
6.30 to 8.00

Next up: CSc1ccc([C@]2(c3ccc(C)c(=O)[nH]3)C[C@@H]2C2CCCC2)cc1 (relative stereo) [Example 3-3]
5.52 to 6.30

Next up: O=C1CC[C@H](C[C@@H](c2ccc(Cl)c(Cl)c2)c2ccc(C3CC3)c(=O)[nH]2)N1 [Example 4-208]
5.00 to 5.52

Next up: O=C1CC[C@H](/C=C(\c2ccc(SCCCO)c(Cl)c2)c2ccc(C(F)(F)F)c(=O)[nH]2)C1 [Example 1-82]
6.30 to 8.00

Next up: CCc1ccc(C(C[C@H]2CCC(=O)N2)c2ccc(C3CC3)c(=O)[nH]2)cc1 (single isomer, unassigned) [Example 4-302]
6.30 to 8.00

Next up: O=C1CC[C@H](CC(c2ccc(S(=O)(=O)C3CC3)cc2)c2ccc(C3CC3)c(=O)[nH]2)N1 (single isomer, unassigned) [Example 4-307]
5.00 to 5.52
